target: human PILRA R78 on cells (human, UniProt Q9UKJ1 20-303); assay: cell-based or functional assay
Sequence (Q9UKJ1 20-303 limits assumed): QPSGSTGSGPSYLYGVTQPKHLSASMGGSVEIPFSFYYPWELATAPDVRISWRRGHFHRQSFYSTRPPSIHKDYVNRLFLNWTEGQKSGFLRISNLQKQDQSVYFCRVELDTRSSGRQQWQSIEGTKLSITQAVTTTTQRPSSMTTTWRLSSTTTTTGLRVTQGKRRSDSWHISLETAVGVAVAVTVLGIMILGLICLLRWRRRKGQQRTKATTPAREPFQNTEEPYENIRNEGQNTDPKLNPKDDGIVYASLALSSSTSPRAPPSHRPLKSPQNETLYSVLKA
QUANTITY: pSTAT3 Y705 induction, Fold Over Background (fold)

>  <BINDER>
Anti-PILRA antibody clone 35 (antibody, V domains shown, Humanized; also called Ab.35) VH: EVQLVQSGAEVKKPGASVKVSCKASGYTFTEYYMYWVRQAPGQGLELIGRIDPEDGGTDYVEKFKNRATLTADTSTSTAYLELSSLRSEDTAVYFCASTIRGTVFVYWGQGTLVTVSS VL: DIQMTQSPSSLSASVGDRVTITCRPSEDIYNGLAWYQQKPGKSPKLLIYNANSLHTGVPSRFSGSGSGTDYTLTISSLQPEDFATYFCQQYYDYPLTFGQGTKVEIK

>  <ASSAY_RESULT>
41

$$$$
